Here, each record is paired with measured ETS1 binding intensity data.
- system: ETS1 (UniProt P14921)
- Sequence: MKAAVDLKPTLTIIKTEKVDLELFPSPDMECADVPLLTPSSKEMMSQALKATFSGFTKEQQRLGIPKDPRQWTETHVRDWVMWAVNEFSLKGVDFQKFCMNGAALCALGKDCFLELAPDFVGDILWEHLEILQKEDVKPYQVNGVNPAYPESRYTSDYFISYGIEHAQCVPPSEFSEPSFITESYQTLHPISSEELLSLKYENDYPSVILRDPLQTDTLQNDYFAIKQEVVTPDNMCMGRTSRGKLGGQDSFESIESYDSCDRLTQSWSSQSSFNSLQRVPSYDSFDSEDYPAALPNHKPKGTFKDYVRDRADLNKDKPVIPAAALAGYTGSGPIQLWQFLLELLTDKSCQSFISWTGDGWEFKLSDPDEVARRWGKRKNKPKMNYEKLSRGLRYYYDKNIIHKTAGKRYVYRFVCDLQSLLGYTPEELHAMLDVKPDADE
- method_summary: ETS1 binding intensity (PBM fluorescence), ETS1 alone (arbitrary fluorescence units); higher = stronger binding
- test_settings: ETS1 concentration 1 nM; RUNX1 concentration 0 nM
measured_attribute: ETS1 binding intensity

entry_sequence	system	recorded_number
TCTCTCTACGGAAGCTGGTAGGGCTGTGGGTGCTTC	ETS1 (UniProt P14921)	729
CTCCCCCTTTTTTTCCTGTGGTTTCATTGCATGTTG	ETS1 (UniProt P14921)	454
GGAGGAAGTGACACCCACCCACTGCCCCCGCAAGGT	ETS1 (UniProt P14921)	962
GGATGGCGGAAGAGGCGGCTGAGGCCGCAGGACGTG	ETS1 (UniProt P14921)	4630
GATACCTAGAAGCCAGGAAACCGCGAGCTGCAGTCC	ETS1 (UniProt P14921)	1080
CTGAGCCGGATGTTACTGGTTAGTGGTTTTCTTTAT	ETS1 (UniProt P14921)	3290
CTGCGCGGCCGGAAGTCGGCGGTTTCCCAGACGACG	ETS1 (UniProt P14921)	20800
CCCCACCCAGACAGGAAACTGTGGCTTCTATCAGAT	ETS1 (UniProt P14921)	3020
ATAAAGGATGTACAGTATTTAGAGAACAGTGGTTAA	ETS1 (UniProt P14921)	553
TTCAGTCCTGGTTTCCTGTGGTTCTAGGATCTTTAT	ETS1 (UniProt P14921)	903
AGGGCATTTCCTTTGGGGCTGGTGGTCACGGACAAC	ETS1 (UniProt P14921)	471
CCGCTTCCGGGACGCGAATCGCTCTGCGGCTGCGTC	ETS1 (UniProt P14921)	556

---

- system: ETS1 (UniProt P14921)
- Sequence: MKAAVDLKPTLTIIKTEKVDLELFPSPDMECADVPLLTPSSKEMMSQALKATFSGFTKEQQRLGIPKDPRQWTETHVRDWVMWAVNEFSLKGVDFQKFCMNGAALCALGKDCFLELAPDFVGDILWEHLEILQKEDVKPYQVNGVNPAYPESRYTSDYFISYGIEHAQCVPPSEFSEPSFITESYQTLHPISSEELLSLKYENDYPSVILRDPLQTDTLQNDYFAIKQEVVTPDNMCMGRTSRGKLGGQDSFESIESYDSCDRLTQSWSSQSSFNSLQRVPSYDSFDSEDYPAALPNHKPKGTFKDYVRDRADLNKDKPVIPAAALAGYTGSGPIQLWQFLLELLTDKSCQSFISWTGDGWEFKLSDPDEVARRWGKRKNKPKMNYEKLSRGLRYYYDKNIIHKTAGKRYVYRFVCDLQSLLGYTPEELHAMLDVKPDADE
- method_summary: ETS1 binding intensity (PBM fluorescence), ETS1 alone (arbitrary fluorescence units); higher = stronger binding
- test_settings: ETS1 concentration 1 nM; RUNX1 concentration 0 nM
Here, each record is paired with measured ETS1 binding intensity data.
measured_attribute: ETS1 binding intensity

entry_sequence	system	measured_attribute	recorded_number
GAAAACACAGGAAGCCGTCCGCGCAACCGCGTTGCA	ETS1 (UniProt P14921)	ETS1 binding intensity	1520
CGGGAACACCCACTTCCGCCACAGACCTGCTCAAAA	ETS1 (UniProt P14921)	ETS1 binding intensity	1400
GAGACAGGAAATGTAGACTTGAGTCCTGTGGTAAAC	ETS1 (UniProt P14921)	ETS1 binding intensity	1910
GTGGTCTCTGCCACTTCCTGTGGTGTAAACAGTCTC	ETS1 (UniProt P14921)	ETS1 binding intensity	2680
TACAACTTGCAACGGAAACCACTTCAGGTTCATTAC	ETS1 (UniProt P14921)	ETS1 binding intensity	1320
CTGGTTTCCAACATCCTGTGGGCGGCCTGGTTTCAG	ETS1 (UniProt P14921)	ETS1 binding intensity	1260
AGTTGGTTCCTTCCGGTGGGTTTGTGGGTTTGGGGT	ETS1 (UniProt P14921)	ETS1 binding intensity	1420
GCAAACGGAAGAGAGGAACGAAGGCCGCAGAGCTTG	ETS1 (UniProt P14921)	ETS1 binding intensity	486
GATCTGTGCTCAGGATGTGGTGAGAGAATAAGGAAG	ETS1 (UniProt P14921)	ETS1 binding intensity	1210
GCGCCGGTGACGGAAGTGCGGTGTTGAGCGCCGGCG	ETS1 (UniProt P14921)	ETS1 binding intensity	2430
CCTCACCCAGGAAGTGGCTGCGGCTGTCTCAGGGTT	ETS1 (UniProt P14921)	ETS1 binding intensity	2450
CTGCCTTGCTTTTCCGGTCGCCGCGGTCCTCTGCGC	ETS1 (UniProt P14921)	ETS1 binding intensity	2130
